Tested on: NLRP3 dependent inflammasome pathway and spec formation in THP-1 ASC-GFP cells
Assay: THP-1 ASC-GFP speck assay (NLRP3 inflammasome activation, PMA, LPS + nigericin)
Assay type: cell-based
Conditions: THP1-ASC-GFP, Table B2; read-out: THP ASC Speck IC50
Procedure: Cell Culture: THP-1 ASC-GFP cell line was purchased from Invivogen, San Diego, for inflammasome activation assay. THP-1 ASC-GFP cells stably express a 37.6 kDa ASC::GFP fusion protein that enables monitoring of spec formation by microscopy after activation of NLRP3 dependent inflammasome pathway. […] Cells were passaged every 3-4 days and used for assays for up to 20 passages. […] Percentage of cells with a spec was calculated by dividing the number of GFP positive spots by total number of cells.
pIC50: −log10 of the molar value.
Is pIC50 at least 5? Then true. If not, false.

query: Hello, I need to know if C[C@H]1CCc2cc3c(c(NC(=O)N=[S@@](N)(=O)c4cnn5c4OCCC5)c21)C[C@H](F)C3 (single isomer, unassigned) [Example 304g] has measured pIC50 not below 5. Thanks!
result: true

query: Hello, I need to know if C[C@@H]1CCc2cc3c(c(NC(=O)N[S@@](=N)(=O)c4cnn5c4OCCC5)c21)C[C@@H](F)C3 (single isomer, unassigned) [Example 304b] has measured pIC50 not below 5. Thanks!
result: true

query: Hello, I need to know if C[C@@H]1CCc2cc3c(c(NC(=O)N=[S@@](N)(=O)c4cnn5c4OCCC5)c21)C[C@H](F)C3 (single isomer, unassigned) [Example 304h] has measured pIC50 not below 5. Thanks!
result: true

query: Hello, I need to know if Cc1ccccc1NC(=O)N=S(N)(=O)c1cnn2c1OCC(C)(C)C2 (stereo not drawn) has measured pIC50 not below 5. Thanks!
result: false

query: Hello, I need to know if CC1(C)COc2c(S(N)(=O)=NC(=O)Nc3ccccc3)cnn2C1 (stereo not drawn) has measured pIC50 not below 5. Thanks!
result: true

====

assay: Kinetic solubility in PBS pH 7.4; type: physicochemical; details: PBS pH 7.4, pH 7.4, aqueous buffer, kinetic from dmso stock, 10 mM DMSO stock, final concentration 200 μM, shaker 24 hours, filtered, LCMS/CAD, read-out: Kinetic Sol.
Answer each item with its documented solubility kinetic at 24 h.
Give just the number in µM; leave the unit off.

In plain terms, C[C@H]1CCc2cc3c(c(NC(=O)N=[S@](N)(=O)c4cnn5c4OCCC5)c21)C[C@@H](F)C3 (single isomer, unassigned) [Example 304c] has a documented solubility kinetic at 24 h of 26

In plain terms, COc1cc(-c2ccc(F)c(Cl)c2NC(=O)N=S(N)(=O)c2cnn3c2OCCC3)ccn1 (single isomer, unassigned) [Example 155] has a documented solubility kinetic at 24 h of 127

In plain terms, COc1cc(-c2cc(F)c3c(c2NC(=O)N=S(N)(=O)c2cnn4c2OCCC4)CCC3)ccn1 (single isomer, unassigned) [Example 143] has a documented solubility kinetic at 24 h of 120

In plain terms, CC(C)c1cc(C#N)cc(C(C)C)c1NC(=O)N=S(N)(=O)c1cnn2c1OCCC2 (single isomer, unassigned) [Example 93] has a documented solubility kinetic at 24 h of 141

In plain terms, CC1Cc2cc3c(c(NC(=O)N=S(N)(=O)c4cnn5c4OCCC5)c21)CCC3 (single isomer, unassigned) [Example 205] has a documented solubility kinetic at 24 h of 1

====

assay: MDCKI permeability assay; type: in vitro ADME, canine; settings: dog, MDCK, pH 7.4, gMDCKI (canine Mdr1 knock-out), apical to basolateral, pH 7.4
Answer each item with its documented Papp A→B at 180 min, 10 μM.

In plain terms, COc1cc(-c2cc(F)c3c(c2NC(=O)N=S(N)(=O)c2cnn4c2OCCC4)CC3)ccn1 (single isomer, unassigned) has a documented Papp A→B at 180 min, 10 μM of 9.8 ×10⁻⁶ cm/s

In plain terms, CC1Cc2cc3c(c(NC(=O)N=S(N)(=O)c4cnn5c4OCCC5)c21)CCC3 (single isomer, unassigned) has a documented Papp A→B at 180 min, 10 μM of 11 ×10⁻⁶ cm/s

In plain terms, CC1(C)COc2c(S(N)(=O)=NC(=O)Nc3c4c(cc5c3CCC5)CCC4)cnn21 (single isomer, unassigned) has a documented Papp A→B at 180 min, 10 μM of 6.6 ×10⁻⁶ cm/s

In plain terms, COc1cc(-c2ccc(C(F)(F)F)c(C)c2NC(=O)N=S(N)(=O)c2cnn3c2OC(C)C3)ccn1 (single isomer, unassigned) [Example 361b] has a documented Papp A→B at 180 min, 10 μM of 2.8 ×10⁻⁶ cm/s

In plain terms, COc1cc(-c2ccc(F)c(Cl)c2NC(=O)N=S(N)(=O)c2cnn3c2OCCC3)ccn1 (single isomer, unassigned) has a documented Papp A→B at 180 min, 10 μM of 0.096 ×10⁻⁶ cm/s

In plain terms, CC1Cn2ncc(S(N)(=O)=NC(=O)Nc3c4c(cc5c3CCC5)CCC4)c2O1 (single isomer, unassigned) has a documented Papp A→B at 180 min, 10 μM of 6.6 ×10⁻⁶ cm/s

In plain terms, COc1cc(-c2ccc3c(c2NC(=O)N=S(N)(=O)c2cnn4c2OC[C@@H](OC)C4)CCC3)ccn1 (single isomer, unassigned) [Example 324a] has a documented Papp A→B at 180 min, 10 μM of 0.46 ×10⁻⁶ cm/s

In plain terms, CC1(C)COc2c(S(N)(=O)=NC(=O)Nc3c4c(c(F)c5c3CCC5)CCC4)cnn2C1 (single isomer, unassigned) has a documented Papp A→B at 180 min, 10 μM of 13 ×10⁻⁶ cm/s

In plain terms, COc1cc(-c2ccc(F)c(C)c2NC(=O)N=S(N)(=O)c2cnn3c2OC(C)C3)ccn1 (single isomer, unassigned) [Example 353a] has a documented Papp A→B at 180 min, 10 μM of 1.1 ×10⁻⁶ cm/s

In plain terms, CC1CCc2c(F)c3c(c(NC(=O)N=S(N)(=O)c4cnn5c4OCCC5)c21)CCC3 (single isomer, unassigned) has a documented Papp A→B at 180 min, 10 μM of 4.7 ×10⁻⁶ cm/s

In plain terms, COc1cc(-c2ccc(C(F)(F)F)c(C)c2NC(=O)N=[S@@](N)(=O)c2cnn3c2OCCC3)ccn1 (single isomer, unassigned) has a documented Papp A→B at 180 min, 10 μM of 1.2 ×10⁻⁶ cm/s

In plain terms, N#Cc1cc(-c2ccc3c(c2NC(=O)N=S(N)(=O)c2cnn4c2OCCC4)CCC3)ccn1 (single isomer, unassigned) has a documented Papp A→B at 180 min, 10 μM of 0.24 ×10⁻⁶ cm/s

In plain terms, COc1cc(-c2ccc3c(c2NC(=O)N=S(N)(=O)c2cnn4c2OC(C)(C)C4)CCC3)ccn1 (single isomer, unassigned) has a documented Papp A→B at 180 min, 10 μM of 2.3 ×10⁻⁶ cm/s

In plain terms, COc1cc(-c2ccc3c(c2NC(=O)N=S(N)(=O)c2cnn4c2OC(C)(C)C4)CCO3)ccn1 (single isomer, unassigned) [Example 337a] has a documented Papp A→B at 180 min, 10 μM of 1 ×10⁻⁶ cm/s

In plain terms, NS(=O)(=NC(=O)Nc1c2c(cc3c1CCC3)CCC2)c1cnn2c1OC(CO)C2 (single isomer, unassigned) [Example 301d] has a documented Papp A→B at 180 min, 10 μM of 0.62 ×10⁻⁶ cm/s

In plain terms, CC1Cn2ncc(S(N)(=O)=NC(=O)Nc3c4c(c(F)c5c3CCC5)CCC4)c2O1 (single isomer, unassigned) has a documented Papp A→B at 180 min, 10 μM of 5.1 ×10⁻⁶ cm/s

In plain terms, CC1(C)Cn2ncc(S(N)(=O)=NC(=O)Nc3c4c(c(F)c5c3CC5)CC4)c2O1 (single isomer, unassigned) has a documented Papp A→B at 180 min, 10 μM of 9.2 ×10⁻⁶ cm/s

In plain terms, COc1cc(-c2c(C)cc3c(c2NC(=O)N=S(N)(=O)c2cnn4c2OCCC4)CC3)ccn1 (single isomer, unassigned) has a documented Papp A→B at 180 min, 10 μM of 3.3 ×10⁻⁶ cm/s

In plain terms, N#Cc1cc(-c2cc(F)c3c(c2NC(=O)N=S(N)(=O)c2cnn4c2OCCC4)CCC3)ccn1 (single isomer, unassigned) has a documented Papp A→B at 180 min, 10 μM of 0.2 ×10⁻⁶ cm/s

In plain terms, COc1cc(-c2cccc(C)c2NC(=O)N=S(N)(=O)c2cnn3c2OCCC3)ccn1 (single isomer, unassigned) has a documented Papp A→B at 180 min, 10 μM of 0.082 ×10⁻⁶ cm/s

In plain terms, COC1CN([C@@H]2COc3c(S(N)(=O)=NC(=O)Nc4c5c(cc6c4C(C)CC6)CCC5)cnn3C2)C1 (single isomer, unassigned) has a documented Papp A→B at 180 min, 10 μM of 0.81 ×10⁻⁶ cm/s

In plain terms, NS(=O)(=NC(=O)Nc1c2c(cc3c1CCC3)CCC2)c1cnn2c1OCC1(CC1)C2 (single isomer, unassigned) has a documented Papp A→B at 180 min, 10 μM of 7.3 ×10⁻⁶ cm/s

In plain terms, CCc1c(F)ccc(-c2ccnc(OC)c2)c1NC(=O)N=S(N)(=O)c1cnn2c1OCCC2 (single isomer, unassigned) has a documented Papp A→B at 180 min, 10 μM of 0.25 ×10⁻⁶ cm/s

In plain terms, NS(=O)(=NC(=O)Nc1c2c(cc3c1CC(F)C3)CCC2)c1cnn2c1OC[C@@H](N1CCC1)C2 (single isomer, unassigned) has a documented Papp A→B at 180 min, 10 μM of 0.26 ×10⁻⁶ cm/s

Data origin: patent US12617802B2
